Record form. Attribute: Kd. Fill in for each entry.
molecular target: T1, Recombinant Human IL-13 (R & D 213-IL-005) (human, UniProt P35225 35-146); test: SPR (Biacore 2000), mAb captured on goat anti-human surface, IL-13 (R&D) injected, 1:1 model
T1 construct: also called IL-13 antigen (R&D Systems)
T1 sequence (P35225 35-146 limits assumed): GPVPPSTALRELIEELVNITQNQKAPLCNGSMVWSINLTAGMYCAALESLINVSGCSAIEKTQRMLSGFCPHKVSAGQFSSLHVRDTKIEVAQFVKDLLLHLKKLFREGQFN
Kindly report the value followed by its unit.

As a guide, the following entries are already answered.
Q) Given mAb 731 (antibody, V domains shown, also called sc731) VH: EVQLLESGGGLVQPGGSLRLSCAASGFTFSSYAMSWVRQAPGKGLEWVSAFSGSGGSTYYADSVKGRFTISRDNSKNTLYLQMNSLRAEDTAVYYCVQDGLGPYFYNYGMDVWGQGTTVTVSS VL: SYELTQPPSVSVSPGQTASITCSGDKLGDKYACWFQQKPGQSPVLVIYHDSKRPSGIPERFSGSNSGDTATLTISGTQAMDEADYYCQAWDSSTYVFGTGTKVTVLG , state its recorded Kd.
A) 9 pM

Q) Given mAb 623 (antibody, V domains shown, also called sc623) VH: EVQLVESGGGLVKPGGSLRLSCAASGFTFSNAWMSWVRQAPGKGLEWVGRIRSEIDGGTTNYAAPVKGRFTISRDDSKNTLYLQMNSLKTEDTAVYYCATDQVGAYYGDYYGMDVWGQGTTVTVSS VL: SYELTQPPSVSVSPGQTARITCSGDALPEKYAYWYQQKSGQAPVLVIYEDSKRPSGIPERFSGSSSGTMATLTISGAQVEDEADYYCHSTDSSGNHGVFGGGTKLTVLG , state its recorded Kd.
A) 52 pM

Q) Given mAb 643 (antibody, V domains shown) VH: EVQLVESGGGLVKPGGSLRLSCAASGFTFSNAWMSWVRQAPGKGLEWVGRIRSEIDGGTTNYAAPVKGRFTISRDDSKNTLYLQMNSLRTEDTAVYYCATDQVGAYYGDYYGMDVWGQGTTVTVSS VL: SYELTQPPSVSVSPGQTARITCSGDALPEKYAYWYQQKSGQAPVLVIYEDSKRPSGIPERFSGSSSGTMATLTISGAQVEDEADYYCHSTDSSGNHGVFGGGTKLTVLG , state its recorded Kd.
A) 66 pM

Q) Given mAb 713 (antibody, V domains shown) VH: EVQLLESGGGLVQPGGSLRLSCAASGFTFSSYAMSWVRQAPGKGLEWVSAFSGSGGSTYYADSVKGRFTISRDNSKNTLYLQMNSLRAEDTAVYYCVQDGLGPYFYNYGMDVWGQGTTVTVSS VL: SYELTQPPSVSVSPGQTASITCSGDKLGDKYTCWFQQKPGQSPVLVIYHDSKRPSGIPERFSGSNSGDTATLTISGTQAMDEADYYCQAWDSSTYVFGTGTKVTVLG , state its recorded Kd.
A) 12 pM

Now, please, on to the next binder.
Q) Given mAb 602 (antibody, V domains shown) VH: EVQLVESGGGLVKPGGSLRLSCAASGFTFSNAWMSWVRQAPGKGLEWVGRIRSKIDGGTINYAAPVKGRFTISRDDSKNTLYLQMNSLKTEDTAVYYCATDQVGAYYGDYYGMDVWGQGTTVTVSS VL: SYELTQPPSVSVSPGQTARITCSGDALPEKYAYWYQQKSGQAPVLVIYEDTKRPSGIPERFSGSSSGTMATLTISGAQVEDEADYYCYSTDSSGNHGVFGGGTKLTVLG , state its recorded Kd.
A) 172 pM
